B1: CPXM2 (parent)
chain: EILGCPLPDPNNYYHRRNEMTTTD

- Variants of: B1
- assay.explanation: protein stability index of a GFP-peptide fusion (GPS, HEK-293T) (PSI 1-6); higher = more stable;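 note: lentivirally expressed fusions sorted by FACS into six bins by GFP to DsRed ratio, PSI derived from sequencing read proportions per bin multiplied by bin number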
- measurement.setup: c terminus: a fixed tail appended
metric.name: protein stability index

Task: Consider the variant shown here: EILGCPLPDPNNYYHTRNEMTTTD [R16T] What is its recorded protein stability index?
Result: 3.48

Task: Repeat with FILGCPLPDPNNYYHRRNEMTTTD [E1F]
Result: 1.83

Task: Same again, this time with EILGCPLIDPNNYYHRRNEMTTTD [P8I]
Result: 3.14

Task: Now the variant EILGCPLPDPDNYYHRRNEMTTTD [N11D]
Result: 3.57

Task: Next entry: EILGCPLPDPNNYYHRRNEMTGTD [T22G]
Result: 3.56
